Entries annotated with measured Activity
# Test system: Huh-7
# Protocol Description: Disruption of cancer stem cell subpopulation of human HuH7 cells assessed as effect on CD133 levels at IC100 after 72 hrs by flow cytometric method (reference value: 0 to 0.6%)
# Assay type: functional
Readout Kind: Activity (%)

CCS(=O)(=O)c1ccc(OC)c(Nc2nc(-c3cccc(-c4ccccn4)c3)co2)c1: 0.1
Cc1ccc([S@+]([O-])C2=CC(=O)C=CC2=O)cc1: 0.2
COC1=CC(=O)C([S@@+]([O-])c2ccc(C)cc2)=CC1=O: 0.3
CCS(=O)(=O)c1ccc(OC)c(Nc2ncc(-c3cccc(-c4cc[nH]c4)c3)o2)c1: 0.9
COC1=CC(=O)C(C)=C([S+]([O-])c2ccc(C)cc2)C1=O (racemic): 0.8
CCOC1=CC(=O)C(C)=C([S@@+]([O-])c2ccc(C)cc2)C1=O: 0.3
Cc1ccc([S@+]([O-])C2=C(Cl)C(=O)C=CC2=O)cc1: 0.2
CCS(=O)(=O)c1ccc(OC)c(Nc2ncc(-c3cc(-c4ccccn4)cc(-c4ccccn4)c3)o2)c1: 0.4
CCS(=O)(=O)c1ccc(OC)c(Nc2ncc(-c3cccc(-c4ccccn4)c3)o2)c1: 0.1
CNC(=O)c1cc(Oc2ccc(NC(=O)Nc3ccc(Cl)c(C(F)(F)F)c3)cc2)ccn1.Cc1ccc(S(=O)(=O)O)cc1 [SORAFENIB TOSYLATE]: 0.2
COC1=CC(=O)C(C)=C([S@@+]([O-])c2ccc(C)cc2)C1=O: 0.5

These entries and their values trace back to ChEMBL document CHEMBL4138043.
